Origin of measurements: patent US20260206755A1

Tested on: Anopheles stephensi
Assay: Anopheles stephensi treated well plate contact test: knockdown and mortality
Type: in vivo
Conditions: Anopheles stephensi, 24 h, read-out: mortality % 24, without TFNA-AM
result type: mortality at 0.02 ppm (%)
Quick reminder: number only, in %, skip the unit.

molecule="CCOC(=O)CC(SP(=S)(OC)OC)C(=O)OCC (stereo not shown)" result_type="mortality at 0.02 ppm" numeric_readout=0
molecule=CNC(=O)Oc1ccccc1OC(C)C result_type="mortality at 0.02 ppm" numeric_readout=0

Lab note: molecule CNC(=O)Oc1cccc2c1OC(C)(C)O2 tested on Anopheles stephensi; recorded mortality at 0.02 ppm was 0

Lab note: molecule COP(=S)(OC)Oc1ccc([N+](=O)[O-])c(C)c1 tested on Anopheles stephensi; recorded mortality at 0.02 ppm was 0

====

mortality % 24, with TFNA-AM values for the molecules below.
Test system: Anopheles stephensi
Test: Anopheles stephensi treated well plate contact test: knockdown and mortality
Type: in vivo
Details: test compound 2 ppm plus 2 ppm TFNA-AM, after 24 hours
Quick reminder: number only, in %, skip the unit.

Consider the worked cases shown below.
molecule="CCOc1cc(C(C)(C)C)ccc1C1COC(c2c(F)cccc2F)=N1 (stereo not drawn) [Etoxazole]" result_type="mortality % 24, with TFNA-AM" numeric_readout=60
molecule="Cc1cc(C(F)(C(F)(F)F)C(F)(F)F)ccc1NC(=O)c1cccc(I)c1C(=O)NC(C)(C)CS(C)(=O)=O [Flubendiamide]" result_type="mortality % 24, with TFNA-AM" numeric_readout=80
molecule="CO/C=C(/C(=O)OC)c1ccccc1Oc1nc(C(C)(C)C)ns1 [Compound 48]" result_type="mortality % 24, with TFNA-AM" numeric_readout=100
molecule="CC1(C)C(C=C(Cl)Cl)C1C(=O)OC(C#N)c1cccc(Oc2ccccc2)c1 (stereo not drawn) [Cypermethrin]" result_type="mortality % 24, with TFNA-AM" numeric_readout=100
molecule="CCc1nn(C)c(C(=O)NCc2ccc(C(C)(C)C)cc2)c1Cl [Tebufenpyrad]" result_type="mortality % 24, with TFNA-AM" numeric_readout=27
molecule="O=[N+]([O-])NC1=NCCN1Cc1ccc(Cl)nc1 [Imidacloprid]" result_type="mortality % 24, with TFNA-AM" numeric_readout=100
molecule="N#Cc1nn(-c2c(Cl)cc(C(F)(F)F)cc2Cl)c(N)c1[S+]([O-])C(F)(F)F (stereo not drawn) [Fipronil]" result_type="mortality % 24, with TFNA-AM" numeric_readout=80
molecule="O=C1C=C(N(Cc2ccc(Cl)nc2)CC(F)F)CO1 [Flupyradifurone]" result_type="mortality % 24, with TFNA-AM" numeric_readout=20

Could you now consider this next molecule?
Lab note: CON=C(C(=O)OC)c1ccccc1CON=C(C)c1cccc(C(F)(F)F)c1 [Trifloxystrobin] gave mortality % 24, with TFNA-AM of 60

====

Tested on: Anopheles stephensi
Assay: Anopheles stephensi treated well plate contact test: knockdown and mortality
Assay type: in vivo
Conditions: test compound 0.02 ppm plus 2 ppm TFNA-AM, after 48 hours
mortality % 48, with TFNA-AM values for the compounds below.
Quick reminder: number only, in %, skip the unit.

Consider the worked cases shown below.
compound="CC(C)=C[C@@H]1[C@@H](C(=O)O[C@H](C#N)c2cccc(Oc3ccccc3)c2)C1(C)C (relative stereo) [d-d, trans cyphenothrin]" measured_target="Anopheles stephensi" numeric_readout=20
compound="CCOc1ccc(C(C)(C)COCc2cccc(Oc3ccccc3)c2)cc1 [Etofenprox]" measured_target="Anopheles stephensi" numeric_readout=60
compound="Cc1c(COC(=O)[C@@H]2[C@H](/C=C(\\Cl)C(F)(F)F)C2(C)C)cccc1-c1ccccc1 (racemic) [Bifenthrin]" measured_target="Anopheles stephensi" numeric_readout=100

Lab note: N#Cc1nn(-c2c(Cl)cc(C(F)(F)F)cc2Cl)c(N)c1[S+]([O-])C(F)(F)F (stereo not shown) [Fipronil] gave mortality % 48, with TFNA-AM of 0

Lab note: CNC(=O)Oc1ccccc1OC(C)C [Propoxur] gave mortality % 48, with TFNA-AM of 40

Lab note: COP(=S)(OC)Oc1ccc([N+](=O)[O-])c(C)c1 [Fenitrothion] gave mortality % 48, with TFNA-AM of 40

Lab note: CCOC(=O)CC(SP(=S)(OC)OC)C(=O)OCC (stereo not shown) [Malathion] gave mortality % 48, with TFNA-AM of 0
